# TARGET OR SYSTEM: ΔF508-CFTR (Homo sapiens, UniProt P13569, DEL508-508)
# Sequence (P13569 with tags, fused parts or gaps DEL508-508): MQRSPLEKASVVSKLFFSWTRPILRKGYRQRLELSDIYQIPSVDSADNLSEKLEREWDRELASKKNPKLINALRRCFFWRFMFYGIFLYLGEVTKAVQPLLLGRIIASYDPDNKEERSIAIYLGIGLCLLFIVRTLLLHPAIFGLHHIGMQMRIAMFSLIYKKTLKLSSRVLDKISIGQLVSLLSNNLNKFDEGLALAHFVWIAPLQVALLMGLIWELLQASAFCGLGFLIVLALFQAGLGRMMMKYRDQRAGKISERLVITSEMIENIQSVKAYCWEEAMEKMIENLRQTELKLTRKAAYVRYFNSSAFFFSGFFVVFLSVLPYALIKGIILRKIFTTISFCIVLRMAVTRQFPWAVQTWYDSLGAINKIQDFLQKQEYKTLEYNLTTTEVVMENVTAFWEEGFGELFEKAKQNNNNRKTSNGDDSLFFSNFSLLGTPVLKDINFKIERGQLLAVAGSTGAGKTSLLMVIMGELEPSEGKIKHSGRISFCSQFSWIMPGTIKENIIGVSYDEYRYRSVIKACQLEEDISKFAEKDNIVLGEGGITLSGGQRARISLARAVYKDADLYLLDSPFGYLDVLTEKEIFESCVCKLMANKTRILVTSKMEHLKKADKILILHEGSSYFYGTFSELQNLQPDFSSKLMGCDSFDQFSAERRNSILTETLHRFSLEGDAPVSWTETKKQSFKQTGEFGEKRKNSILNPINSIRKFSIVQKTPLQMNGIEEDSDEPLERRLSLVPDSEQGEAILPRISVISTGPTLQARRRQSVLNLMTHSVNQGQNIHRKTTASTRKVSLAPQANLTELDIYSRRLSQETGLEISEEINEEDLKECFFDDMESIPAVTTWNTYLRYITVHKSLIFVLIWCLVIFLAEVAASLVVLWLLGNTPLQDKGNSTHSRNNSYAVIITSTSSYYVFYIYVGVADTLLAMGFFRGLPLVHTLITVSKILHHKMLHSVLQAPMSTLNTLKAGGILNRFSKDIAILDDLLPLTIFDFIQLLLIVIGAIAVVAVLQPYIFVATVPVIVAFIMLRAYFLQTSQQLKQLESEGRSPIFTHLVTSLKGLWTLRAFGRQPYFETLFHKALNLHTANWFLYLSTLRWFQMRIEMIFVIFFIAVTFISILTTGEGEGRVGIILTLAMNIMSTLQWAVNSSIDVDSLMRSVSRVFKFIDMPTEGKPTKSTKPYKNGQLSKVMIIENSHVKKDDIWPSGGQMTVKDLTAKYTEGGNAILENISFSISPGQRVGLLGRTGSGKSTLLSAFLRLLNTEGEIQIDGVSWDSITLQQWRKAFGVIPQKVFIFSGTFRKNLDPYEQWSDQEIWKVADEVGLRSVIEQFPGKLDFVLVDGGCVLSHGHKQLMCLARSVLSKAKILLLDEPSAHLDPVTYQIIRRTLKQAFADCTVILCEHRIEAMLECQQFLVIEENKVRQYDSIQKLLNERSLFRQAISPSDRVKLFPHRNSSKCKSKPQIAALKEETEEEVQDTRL
# ASSAY OVERVIEW: Membrane potential optical assay (FRET/VIPR), identification of correction compounds
Some molecules, each annotated with its measured EC50.

>>> meas_value("CC(c1nc2ccccc2c(=O)n1C)N1CCCN(S(=O)(=O)c2ccc(Cl)cc2)CC1 (stereo not shown) [compound 171]")
"10 to 25 µM"
>>> meas_value("COc1ccc(C(=O)N2CCN(C(C)c3nc4ccccc4c(=O)n3C)CC2)cc1 (stereo not shown) [compound 81]")
"25 to 60 µM"
>>> meas_value("COc1ccc(S(=O)(=O)N2CCN(C(C)c3nc(N4CCCCCC4)c4ccccc4n3)CC2)cc1 (stereo not shown) [compound 319]")
"< 10 µM"

Moving on to the next molecule.
Value of measured EC50 for the entry COc1ccc(S(=O)(=O)N2CCN(C(C)c3nccc(N4CCCCC4)n3)CC2)cc1 (stereo not shown) [compound 360] : 25 to 60 µM
